Data origin, for the record: paper PMC7822874

Assay: in vitro; also: reference of the scale not given here
Conditions: human, HepG2-A16-CD81EGFP cells, uninfected
measurement.label: viability at 48 h, 3 µM (%)
Give the value in % but do not write % after it.

Please review the following examples before continuing.
compound="COc1ccc(C2=C(Nc3ccc(C)cc3)c3ccccc3C2=O)cc1 [MLS000563980-01]" unit_name=% readout_value=90
compound="Cc1cnc(CC2CCN([S+](=O)([O-])c3ccccc3)CC2)n1Cc1ccccc1 [NCGC00469740-01]" unit_name=% readout_value=96.4
compound="O=C(Nc1cccc(-c2nc3ccccc3[nH]2)c1)c1ccc(C(=O)Nc2cccc(-c3nc4ccccc4[nH]3)c2)cc1 [MLS000766212-01]" unit_name=% readout_value=96
compound="COc1ccc(C(CCN2CCCCC2)c2c(O)cc(OC)cc2OC)cc1 (centres unmarked) [MLS000879486-01]" unit_name=% readout_value=85
compound="c1ccc(Nc2cc3c(cn2)CN(Cc2ccc4[nH]ccc4c2)CCN3)cc1 [NCGC00411105-01]" unit_name=% readout_value=43.5

Q: Can you look up the measured viability at 48 h, 3 µM of O=C(C[n+]1cc(-c2ccccc2)n2c1CCC2)c1cccs1 [MLS001003812-01] for me?
A: 86

Q: Also, CCCCN(CC)CCNC(=O)c1cc2c(-c3ccc(Cl)cc3)nn(C)c2s1 [NCGC00108995-01] please.
A: 97

Q: Also, CCn1c(SCC(=O)NCCc2ccccc2)nc2sc3c(c2c1=O)CCN(C)C3 [MLS000332196-01] please.
A: 87

Q: Also, CCN(Cc1ccccc1)C(=O)CCC[C@@H]1[C@H]2CCCN3CCC[C@@H](CN1C(=O)c1ccccc1)[C@@H]23 [NCGC00429496-01] please.
A: 93.8

Q: Also, Cc1ccccc1Nc1nnc(SCc2cc(=O)n3ccsc3n2)s1 [MLS000565690-01] please.
A: 101

Q: Also, CC(C)C(=O)OCC(=O)[C@@]12O[C@H](C3CCCCC3)O[C@@H]1C[C@H]1[C@@H]3CCC4=CC(=O)C=C[C@]4(C)[C@H]3[C@@H](O)C[C@@]12C [NCGC00167484-01] please.
A: 94

Q: Also, Cc1cccc(Nc2nc(NCc3ccco3)c3ccccc3n2)c1 [MLS000662793-01] please.
A: 74

Q: Also, N=c1c2c(n(Cc3ccccc3)c3c1CCC3)CCC2 [MLS000080128-01] please.
A: 74

Q: Also, C=CCOC(=O)C(C#N)c1nc2ccccc2nc1N1CCC(C(=O)OCC)CC1 (centres unmarked) [MLS000036470-01] please.
A: 100

Q: Also, Cc1cc(C)cc(C(=O)Nc2ccc3c(N4CCCC4)ncnc3c2)c1 [NCGC00425487-01] please.
A: 27.1

Q: Also, CCc1cc2c(=O)c(-c3cnn(-c4ccccc4)c3)c(C)oc2c(CN2CCCCC2)c1O [MLS000530719-01] please.
A: 105

Q: Also, CC(C)Oc1ccc2c(c1)OC(c1ccccc1)(C(F)(F)F)NC2=O (centres unmarked) [MLS000392812-01] please.
A: 98

Q: Also, COc1cccc(CNCC(O)(c2ccc(Cl)cc2)c2ccc(Cl)cc2)c1 [MLS000325699-01] please.
A: 101

Q: Also, CCCCC(O)(c1ccc(CC)cc1)C(CN1CCOCC1)c1ccccc1 (centres unmarked) [MLS001198887-01] please.
A: 85

Q: Also, CCOC(=O)CC(=O)CSc1nc2ccccc2c(=O)n1-c1ccc(C(=O)N2CCOCC2)cc1 [MLS000095558-01] please.
A: 87
